Recorded solubility for the following molecules
assay: Solubility in simulated gastric fluid; assay type: physicochemical
measuredQuantity: solubility

[[record]]
molecule = "O=C(c1ccc(Oc2ccc(F)cc2)nc1)N1CCCN(C2CCC2)CC1 [JNJ-39220675]"
result = "> 5000 µg/mL"

[[record]]
molecule = "N#Cc1cccc(Oc2ccc(C(=O)N3CCCN(C4CCC4)CC3)cn2)c1"
result = "> 1000 µg/mL"


---

Recorded concentration at 1 h for the following compounds
assay: Drug level in Wistar rat brain at 10 mg/kg, po after 1 hr; assay type: ADME, organism-based; design: dose 10 mg/kg, route oral; conditions: read-out: Drug uptake
measuredQuantity: concentration at 1 h (nM)

[[record]]
compound = "O=C(c1ccc(Oc2ccccc2)nc1)N1CCCN(C2CCC2)CC1"
quantityunit = "nM"
numericreadout = 300

[[record]]
compound = "O=C(c1ccc(Sc2ccc(F)cc2)cn1)N1CCCN(C2CCC2)CC1"
quantityunit = "nM"
numericreadout = 120

[[record]]
compound = "O=C(c1ccc(Oc2ccc(F)cc2)nc1)N1CCCN(C2CCC2)CC1 [JNJ-39220675]"
quantityunit = "nM"
numericreadout = 2650

[[record]]
compound = "O=C(c1ccc(Oc2cccc(Cl)c2)nc1)N1CCCN(C2CCC2)CC1"
quantityunit = "nM"
numericreadout = 1720

[[record]]
compound = "O=C(c1ccc(Oc2ccc(F)cc2)cn1)N1CCCN(C2CCC2)CC1"
quantityunit = "nM"
numericreadout = 2370

[[record]]
compound = "O=C(c1ccc(Oc2cccc(F)c2)nc1)N1CCCN(C2CCC2)CC1"
quantityunit = "nM"
numericreadout = 1960

[[record]]
compound = "O=C(c1ccc(Oc2ccc(Cl)c(Cl)c2)nc1)N1CCCN(C2CCC2)CC1"
quantityunit = "nM"
numericreadout = 4790

[[record]]
compound = "O=C(c1ccc(Oc2ccc(Cl)cc2)nc1)N1CCCN(C2CCC2)CC1"
quantityunit = "nM"
numericreadout = 2620

[[record]]
compound = "N#Cc1cccc(Oc2ccc(C(=O)N3CCCN(C4CCC4)CC3)cn2)c1"
quantityunit = "nM"
numericreadout = 960

[[record]]
compound = "O=C(c1ccc(Oc2cccc(Cl)c2)nc1)N1CCCN(C2CC2)CC1"
quantityunit = "nM"
numericreadout = 300

